target: Tyrosine-protein kinase Lck (Homo sapiens, UniProt P06239); assay: Inhibition of recombinant Lck catalytic domain in presence of 1 uM radiolabeled ATP
Sequence (P06239 whole entry, the tested form may be a part): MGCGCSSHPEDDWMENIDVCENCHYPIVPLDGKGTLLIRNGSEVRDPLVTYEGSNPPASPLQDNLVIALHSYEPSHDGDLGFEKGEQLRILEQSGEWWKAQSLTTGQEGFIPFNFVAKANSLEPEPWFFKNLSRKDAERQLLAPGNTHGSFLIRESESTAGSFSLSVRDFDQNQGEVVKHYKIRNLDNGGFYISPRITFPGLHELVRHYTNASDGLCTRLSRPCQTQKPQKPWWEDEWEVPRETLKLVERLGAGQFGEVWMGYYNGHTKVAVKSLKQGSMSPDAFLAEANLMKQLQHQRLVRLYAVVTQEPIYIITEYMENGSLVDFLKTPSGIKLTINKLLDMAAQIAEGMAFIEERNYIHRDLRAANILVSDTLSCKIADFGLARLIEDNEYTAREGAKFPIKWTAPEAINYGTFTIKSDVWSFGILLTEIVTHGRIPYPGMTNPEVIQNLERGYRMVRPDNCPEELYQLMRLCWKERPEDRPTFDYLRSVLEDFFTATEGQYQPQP
MEASURED_ATTRIBUTE: IC50 (nM)
The figure you give is taken to be in nM; do not add the unit.

*Q* # IC50 lookup, item Cc1ccc(O)cc1-n1c(=O)c2c(c3c(N)ncnc31)CCCC2
*A* 1380

----------
Parameter inhibition: see the listing below.
molecular target: Ephrin type-B receptor 4 (Homo sapiens); assay: Inhibition of EphB4 at 30 uM in presence of 30 uM ATP
The figure you give is taken to be in %; do not add the unit.

// below: answered compounds
*Q* # inhibition lookup, item COc1cccc(-n2c(=O)c3c(c4c(N)ncnc42)CCCC3)c1
*A* 75

*Q* Moving on to the next compound: COc1ccc(-n2c(=O)c3c(c4c(N)ncnc42)CCCC3)cc1
*A* 37

*Q* Moving on to the next compound: COc1cccc(-n2c(=O)c3c(c4c(N)ncnc42)CC(C)(C)OC3)c1
*A* 38

Next:
*Q* # inhibition lookup, item Cc1ccccc1-n1c(=O)c2c(c3c(N)ncnc31)CCCC2
*A* 48

*Q* Moving on to the next compound: COc1ccccc1-n1c(=O)c2c(c3c(N)ncnc31)CC(C)(C)OC2
*A* 0

*Q* Moving on to the next compound: COc1ccccc1-n1c(=O)c2c(c3c(N)ncnc31)CCCC2
*A* 5

----------
target: Ephrin type-B receptor 4 (Homo sapiens, UniProt P54760); test: Inhibition of human full length EphB4 expressed in MEF cells assessed as inhibition of human ephrin B2/FC chimera-stimulated receptor autophosphorylation; format: cell-based
MEASURED_ATTRIBUTE: pIC50
For clarity, pIC50 is expressed as the negative log10 of concentration in mol/L.

*Q* # pIC50 lookup, item Cc1ccc(O)cc1-n1c(=O)c2c(c3c(N)ncnc31)CCCC2
*A* 6.03

----------
Biological target: Ephrin type-B receptor 4 (Homo sapiens)
Sequence (P54760 whole entry): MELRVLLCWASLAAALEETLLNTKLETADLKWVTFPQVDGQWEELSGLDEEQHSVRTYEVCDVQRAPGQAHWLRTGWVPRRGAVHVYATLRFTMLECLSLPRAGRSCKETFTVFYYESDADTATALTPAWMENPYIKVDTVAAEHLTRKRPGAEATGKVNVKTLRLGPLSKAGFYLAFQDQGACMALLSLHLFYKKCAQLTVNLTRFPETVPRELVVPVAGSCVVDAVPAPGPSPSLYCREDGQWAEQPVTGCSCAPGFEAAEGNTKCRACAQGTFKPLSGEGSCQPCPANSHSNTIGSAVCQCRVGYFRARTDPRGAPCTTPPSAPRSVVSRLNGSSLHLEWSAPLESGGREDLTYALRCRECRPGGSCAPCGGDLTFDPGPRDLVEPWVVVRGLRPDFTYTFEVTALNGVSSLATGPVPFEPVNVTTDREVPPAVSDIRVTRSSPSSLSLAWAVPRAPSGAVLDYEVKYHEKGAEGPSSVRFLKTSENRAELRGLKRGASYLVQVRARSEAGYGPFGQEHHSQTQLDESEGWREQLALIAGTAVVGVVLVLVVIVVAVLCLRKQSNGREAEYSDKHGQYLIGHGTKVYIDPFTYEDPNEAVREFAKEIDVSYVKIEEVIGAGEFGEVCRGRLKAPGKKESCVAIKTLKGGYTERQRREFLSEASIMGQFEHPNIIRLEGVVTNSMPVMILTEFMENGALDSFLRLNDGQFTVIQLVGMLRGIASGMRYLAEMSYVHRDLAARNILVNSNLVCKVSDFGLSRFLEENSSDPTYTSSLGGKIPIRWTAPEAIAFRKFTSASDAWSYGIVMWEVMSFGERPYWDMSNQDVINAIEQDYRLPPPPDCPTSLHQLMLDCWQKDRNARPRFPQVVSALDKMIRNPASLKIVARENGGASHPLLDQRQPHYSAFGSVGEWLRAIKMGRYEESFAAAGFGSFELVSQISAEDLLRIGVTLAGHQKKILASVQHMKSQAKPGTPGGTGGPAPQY
Experiment: Inhibition of EphB4 in presence of 1 uM radiolabeled ATP
Parameter IC50: see the listing below.
The figure you give is taken to be in µM; do not add the unit.

*Q* # IC50 lookup, item Cc1ccc(O)cc1-n1c(=O)c2c(c3c(N)ncnc31)CCCC2
*A* 0.16

*Q* Moving on to the next compound: COc1cccc(-n2c(=O)c3c(c4c(N)ncnc42)CC(C)(C)OC3)c1
*A* 14.3

*Q* Moving on to the next compound: Cc1ccccc1-n1c(=O)c2c(c3c(N)ncnc31)CCCC2
*A* 8.4

*Q* Moving on to the next compound: COc1cccc(-n2c(=O)c3c(c4c(N)ncnc42)CCCC3)c1
*A* 5.2
